Field: EC50. Provide a value for each of the compounds that follow.
System: HBV
Assay: HBV inhibition assay: anti-HBV activity in vitro in HepG2.2.15 cells (extracellular HBV DNA by qPCR)
Format: cell-based
Conditions: Hepatitis B virus, 120 h, five days after compound treatment, extracellular HBV DNA in culture supernatant by qPCR, concentration at which HBV replication is inhibited by 50%
Excerpt: Example 441: HBV Inhibition Assays Cell Line and Culture Conditions: HepG2.2.15 is a stably-transfected cell line containing the HBV genome. […] For quantitative PCR detection of extracellular HBV DNA, culture supernatant was processed by Proteinase K digestion. After heat inactivation of the enzyme, the samples were subjected to HBV DNA quantification by qPCR. […]
State the answer as a number, implicitly in nM.

Endpoint output: EC50 of C[C@H]1Cn2ncc(N3CCCOC3=O)c2CN1C(=O)Nc1cc(F)c(F)c(F)c1 [Example 292] . Value?
48

Please report the recorded EC50 for CC1Cn2ncc(-c3ccc(F)cc3F)c2CN1C(=O)Nc1ccnc(F)c1 (stereo not shown) [Example 174] .
66

EC50 for Cc1cc(NC(=O)N2Cc3c(-c4ccc(F)cn4)cnn3CC2C)cc(F)c1F (stereo not shown) [Example 156] ?
25

EC50 for C[C@H]1Cn2ncc(N3CC(C)(C)OC3=O)c2CN1C(=O)Nc1cc(F)c(F)c(F)c1 [Example 250] ?
21
